SYSTEM: tramadol metabolism in human liver microsomes (HLM)
TEST_SUMMARY: Liver microsomal incubation assay: inhibition of tramadol metabolism in HLM
RUN_PARAMETERS: Lineweaver-Burk, crizotinib 0, 5, 10, 20 µM, tramadol 25-200 µM
VALUE_TYPE: pKi
For clarity, pKi is expressed as the negative log10 of concentration in mol/L.

Give its pKi value. Item: C[C@@H](Oc1cc(-c2cnn(C3CCNCC3)c2)cnc1N)c1c(Cl)ccc(F)c1Cl [crizotinib] 4.84

* * *

// reported AUC(0-t) for each item listed
TEST_SUMMARY: Pharmacokinetics of tramadol and O-desmethyl tramadol in SD rats with or without crizotinib
RUN_PARAMETERS: male, Sprague-Dawley, rat, serum, po, 20 mg/kg, AUC(0−t), Group B: 20 mg/kg tramadol with crizotinib 45 mg/kg single dose
Give the quantity in ng·h/mL, number only.

COMPOUND	AUC(0-t), ng·h/mL
COc1cccc(C2(O)CCCCC2CN(C)C)c1 (centres unmarked)	1120

Give its AUC(0-t) value. Item: `CN(C)C[C@H]1CCCC[C@]1(O)c1cccc(O)c1` 928
